Data credit: PubChem BioAssay AID1963442

# Tested on: MPNST complex spheroid with HUVEC/MSC, growth, % test/control
# procedure.summary: Anticancer human tumor MPNST cell line growth inhibition [Asc];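 note: compounds left on spheroids for seven days before reading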
# condition.summary: second compound 1 µM; first compound 0.00316 µM; hits give low values
endpoint: viability, T/C (%)
Quick reminder: number only, in %, skip the unit.

Please give the measured viability, T/C for this molecule: CCN1CCN(Cc2ccc(Nc3ncc(F)c(-c4cc(F)c5nc(C)n(C(C)C)c5c4)n3)nc2)CC1 + CNC(C)C(=O)NC1CN(S(=O)(=O)c2cccc(S(=O)(=O)N3CCC4CCC(C(=O)NC(c5ccccc5)c5ccccc5)N4C(=O)C(NC(=O)C(C)NC)C3)c2)CCC2CCC(C(=O)NC(c3ccccc3)c3ccccc3)N2C1=O 66.6
